Assayed System: c-Met (Homo sapiens)
Construct: Kinases are expressed as either kinase domains or full length constructs; made in house
Sequence (P08581 25-1390): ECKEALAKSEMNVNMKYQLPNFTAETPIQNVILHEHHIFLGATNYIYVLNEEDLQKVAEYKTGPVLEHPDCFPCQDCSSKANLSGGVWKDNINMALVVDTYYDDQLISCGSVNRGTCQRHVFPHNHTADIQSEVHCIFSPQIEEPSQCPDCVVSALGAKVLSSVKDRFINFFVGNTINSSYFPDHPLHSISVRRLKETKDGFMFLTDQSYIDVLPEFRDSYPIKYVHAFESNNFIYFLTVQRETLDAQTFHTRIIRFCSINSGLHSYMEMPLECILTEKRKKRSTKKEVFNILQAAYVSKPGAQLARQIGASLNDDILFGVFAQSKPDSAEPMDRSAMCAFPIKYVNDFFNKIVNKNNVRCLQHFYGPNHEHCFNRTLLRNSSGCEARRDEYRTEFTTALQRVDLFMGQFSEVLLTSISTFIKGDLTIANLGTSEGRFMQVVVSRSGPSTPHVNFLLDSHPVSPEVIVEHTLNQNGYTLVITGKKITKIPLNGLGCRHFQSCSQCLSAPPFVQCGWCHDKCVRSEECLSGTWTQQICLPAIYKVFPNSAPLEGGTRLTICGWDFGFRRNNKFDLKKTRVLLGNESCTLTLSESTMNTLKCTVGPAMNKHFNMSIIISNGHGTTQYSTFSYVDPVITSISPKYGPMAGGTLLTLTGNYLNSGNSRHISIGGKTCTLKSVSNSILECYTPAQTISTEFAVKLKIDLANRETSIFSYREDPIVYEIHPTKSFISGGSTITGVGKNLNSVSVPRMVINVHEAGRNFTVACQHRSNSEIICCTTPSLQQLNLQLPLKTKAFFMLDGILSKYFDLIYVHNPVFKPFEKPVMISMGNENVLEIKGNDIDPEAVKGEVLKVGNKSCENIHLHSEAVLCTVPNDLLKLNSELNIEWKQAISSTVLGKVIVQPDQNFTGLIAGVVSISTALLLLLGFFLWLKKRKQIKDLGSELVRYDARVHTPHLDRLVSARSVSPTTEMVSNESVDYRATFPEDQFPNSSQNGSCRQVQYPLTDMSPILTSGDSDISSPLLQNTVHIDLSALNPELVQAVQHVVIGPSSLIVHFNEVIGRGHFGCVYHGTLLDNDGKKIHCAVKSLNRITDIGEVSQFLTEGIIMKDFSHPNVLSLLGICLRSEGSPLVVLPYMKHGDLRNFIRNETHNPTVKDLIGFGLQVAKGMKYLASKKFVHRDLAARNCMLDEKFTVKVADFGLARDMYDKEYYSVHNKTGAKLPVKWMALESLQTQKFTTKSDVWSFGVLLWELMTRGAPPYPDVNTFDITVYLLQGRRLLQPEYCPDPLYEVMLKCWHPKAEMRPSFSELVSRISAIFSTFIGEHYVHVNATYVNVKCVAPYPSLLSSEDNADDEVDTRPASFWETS
Assay Overview: Kinase inhibition assay (33P transfer), c-Met
Assay type: biochemical
Stated Conditions: Table 2, kinase inhibition class; read-out: Met-1
pIC50: −log10 of the molar value.
Reported Endpoint: pIC50

Consider the compound shown here: Nc1ncnc(Nc2ccc3c(cnn3Cc3ccccc3)c2)n1 [Compound 665] What is its recorded pIC50?
< 4.85

Consider the compound shown here: COc1cc(Nc2ncnc(-n3c(Nc4ccccc4C(C)C)nc4ccccc43)n2)cc(OC)c1OC [Compound 1049] What is its recorded pIC50?
5.33 to 6.11

Consider the compound shown here: COc1ccc(CNc2ncnc(Nc3ccc4c(cnn4Cc4ccccc4)c3)n2)cc1OC [Compound 732] What is its recorded pIC50?
< 5.02

Consider the compound shown here: CC(C)(C)OC(=O)NCc1cccc(Nc2ncnc(Nc3cc(-c4ccccc4)n[nH]3)n2)c1 [Compound 986] What is its recorded pIC50?
5.28 to 6.06

Consider the compound shown here: COc1ccc(Nc2ncnc(Nc3cc(OC)c(OC)c(OC)c3)n2)cc1OCCN1CCOCC1 [Compound 599] What is its recorded pIC50?
< 5.06

Consider the compound shown here: COc1cc(Nc2ncnc(Nc3ccc(-c4ccccc4)cc3)n2)cc(OC)c1OC [Compound 100] What is its recorded pIC50?
< 4.98

Consider the compound shown here: Fc1cccc(Nc2ncnc(-c3cccs3)n2)c1 [Compound 1073] What is its recorded pIC50?
< 4.78

Consider the compound shown here: COc1cc(Nc2ncnc(N3CCc4cc([N+](=O)[O-])ccc43)n2)cc(OC)c1OC [Compound 187] What is its recorded pIC50?
< 4.97

meta.source: patent US7074789B2
